System: 556581-035-R-J1-PDC complex spheroid growth;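 further: spheroids exposed to agents for 7 days before viability read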
EXPERIMENT DESCRIPTION: Anticancer human tumor 556581-035-R-J1-PDC patient-derived ovarian carcinoma cell line growth inhibition [Asc]
RUN CONDITIONS: curve of first compound; second compound 10 µM
pIC50: −log10 of the molar value.
PROPERTY NAME: pIC50

1. O=C(c1cc(Cc2n[nH]c(=O)c3ccccc23)ccc1F)N1CCN(C(=O)C2CC2)CC1 + Cc1c(S(C)(=O)=O)c(-c2cc(F)cc(N3CCN(c4ccc(NS(=O)(=O)c5ccc(NC(CCN6CCC(C(=O)OCCCP(=O)(O)O)CC6)CSc6ccccc6)c(S(=O)(=O)C(F)(F)F)c5)cc4)CC3)c2)c(-c2ccc(Cl)cc2)n1C(C)C :: < 5.00
2. CNC(C)C(=O)NC1CN(S(=O)(=O)c2cccc(S(=O)(=O)N3CCC4CCC(C(=O)NC(c5ccccc5)c5ccccc5)N4C(=O)C(NC(=O)C(C)NC)C3)c2)CCC2CCC(C(=O)NC(c3ccccc3)c3ccccc3)N2C1=O (centres undefined) + Cc1c(S(C)(=O)=O)c(-c2cc(F)cc(N3CCN(c4ccc(NS(=O)(=O)c5ccc(NC(CCN6CCC(C(=O)OCCCP(=O)(O)O)CC6)CSc6ccccc6)c(S(=O)(=O)C(F)(F)F)c5)cc4)CC3)c2)c(-c2ccc(Cl)cc2)n1C(C)C :: > 8.50
3. NC1CCC(NC2CC2c2ccccc2)CC1 (centres undefined) + Cc1c(S(C)(=O)=O)c(-c2cc(F)cc(N3CCN(c4ccc(NS(=O)(=O)c5ccc(NC(CCN6CCC(C(=O)OCCCP(=O)(O)O)CC6)CSc6ccccc6)c(S(=O)(=O)C(F)(F)F)c5)cc4)CC3)c2)c(-c2ccc(Cl)cc2)n1C(C)C :: < 7.00

Now look at this entry.
Form field: pIC50 recorded for Cn1ncnc1[C@H]1c2n[nH]c(=O)c3cc(F)cc(c23)N[C@@H]1c1ccc(F)cc1 + Cc1c(S(C)(=O)=O)c(-c2cc(F)cc(N3CCN(c4ccc(NS(=O)(=O)c5ccc(NC(CCN6CCC(C(=O)OCCCP(=O)(O)O)CC6)CSc6ccccc6)c(S(=O)(=O)C(F)(F)F)c5)cc4)CC3)c2)c(-c2ccc(Cl)cc2)n1C(C)C with 556581-035-R-J1-PDC complex spheroid growth (enter value)
< 7.00
